target: dopamine D-2 receptor (Rattus norvegicus); construct: 90 µL of the striatal membrane preparation; from tissue; host or cells: rat striatum (membrane homogenate); experiment: Blocking of [3H](S)-sulpiride binding to rat striatal membranes; conditions: radioligand [3H](S)-sulpiride at 5.0 nM; rat striatal membrane preparation; 30 min at 37 °C
Sequence (P61169 whole entry): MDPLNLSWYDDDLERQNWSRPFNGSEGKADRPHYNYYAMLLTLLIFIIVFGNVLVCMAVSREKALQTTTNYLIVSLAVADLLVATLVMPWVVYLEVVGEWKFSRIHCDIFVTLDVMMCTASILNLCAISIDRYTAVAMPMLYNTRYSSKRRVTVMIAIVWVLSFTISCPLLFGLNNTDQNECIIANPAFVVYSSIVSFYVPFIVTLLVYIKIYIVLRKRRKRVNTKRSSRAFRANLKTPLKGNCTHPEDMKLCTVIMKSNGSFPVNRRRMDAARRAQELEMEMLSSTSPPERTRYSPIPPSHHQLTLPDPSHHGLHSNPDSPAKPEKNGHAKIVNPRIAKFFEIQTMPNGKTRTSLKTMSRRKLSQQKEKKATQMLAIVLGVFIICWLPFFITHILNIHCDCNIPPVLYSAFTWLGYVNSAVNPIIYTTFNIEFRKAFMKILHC
Reported IC50 values for a set of compounds
Give the value, in units of nM, as a plain number.

# query: IC50 of entry CCN1CCC[C@H]1CNC(=O)c1cc(I)ccc1OC 3.3

# query: IC50 of entry CCN1CCC[C@@H]1CNC(=O)c1cc(I)ccc1OC 145
